Taken from patent US12435050B2.

Test system: Euphorbia heterophylla (EPHHL)
TEST NAME: Field weed control efficacy on EPHHL
Assay type: in vivo
CONDITIONS USED: 200 g a.e./ha, EPHHL at BBCH 16-17 at application
READOUT: % Control compared to untreated EPHHL plants 28 DAA (%)

O=C(O)Cn1c(=O)sc2cccc(Cl)c21 [Benazolin-DGA] = 8
O=C(O)Cn1c(=O)sc2cccc(Cl)c21 [Benazolin-choline] = 13
O=C(O)Cn1c(=O)sc2cccc(Cl)c21 [Benazolin] = 5
CCOC(=O)Cn1c(=O)sc2cccc(Cl)c21 [Benazolin-ethyl] = 8

----------
Test system: Amaranthus retroflexus (AMARE)
TEST NAME: Greenhouse weed control efficacy on AMARE
Format: in vivo
CONDITIONS USED: 100 g a.e./ha, AMARE at BBCH 16-19 at application, visual rating 21 DAA
Parameter % Control compared to untreated AMARE plants 21 DAA: see the listing below.
READOUT: % Control compared to untreated AMARE plants 21 DAA

O=C(O)Cn1c(=O)sc2cccc(Cl)c21 [Benazolin-DGA] = 40%
O=C(O)Cn1c(=O)sc2cccc(Cl)c21 [Benazolin-choline] = 70%
O=C(O)Cn1c(=O)sc2cccc(Cl)c21 [Benazolin-BAPMA] = 65%
O=C(O)Cn1c(=O)sc2cccc(Cl)c21 [Benazolin] = 25%
CCOC(=O)Cn1c(=O)sc2cccc(Cl)c21 = 35%

----------
Tested on: Portulaca oleracea (POROL)
TEST NAME: Field weed control efficacy on POROL
Type: in vivo
CONDITIONS USED: 200 g a.e./ha, POROL at BBCH 21-22 at application
READOUT: % Control compared to untreated POROL plants 28 DAA

O=C(O)Cn1c(=O)sc2cccc(Cl)c21 [Benazolin-DGA] = 50%
O=C(O)Cn1c(=O)sc2cccc(Cl)c21 [Benazolin] = 88%
O=C(O)Cn1c(=O)sc2cccc(Cl)c21 [Benazolin-choline] = 100%
CCOC(=O)Cn1c(=O)sc2cccc(Cl)c21 = 88%
